Ref: PubChem BioAssay

- assay_notes: inhibitors of TNFa-induced NFkB p65 translocation, primary screen, imaging, HUVEC, MLSMR starter and 10KST1 sets (AID 438);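 also: compound added about 3h40 before a 20 min TNFalpha stimulation; signal is the nuclear over cytoplasmic p65 intensity ratio per well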
- settings: HUVEC TNFa-induced p65 nuclear translocation; at 2 µM, stronger effect = higher value, 0% TNFa-plus-vehicle, 100% no-TNFa wells
parameter_measured: inhibition (%)
// units = %; emit number, no label

inhibition lookup needed for COc1cc(C(=O)NCCc2ccc3c(c2)OCCO3)ccc1OCC(=O)N1CCOCC1 , thanks.
2.4

How about O=C(CSc1nc2c(c(=O)n1-c1ccc(F)cc1)SCC2)NCC1CCCO1 (stereo not given) ?
9.8

How about N#Cc1cc2ccc(N3CCOCC3)cc2cc1C#N ?
-6.5

How about CC(C)(C)Cc1nc(-c2ccccn2)no1 ?
0.8

How about COc1cc(C)nc(N2CCCC(C(=O)Nc3cccc(Cl)c3Cl)C2)n1 (stereo not given) ?
3.6

How about CC(C)[C@H](NC(=O)OC(C)(C)C)c1nnc(SCc2cccc(F)c2)o1 ?
0

How about CCCCOc1ccc(S(=O)(=O)n2c(C)nc3ccccc32)cc1 ?
-1.5

How about CCc1nnc(NC(=O)c2ccc(COc3ccc(C)cc3)o2)s1 ?
-1.9

How about COc1cccc(C(=O)Nc2ccc(C)cc2)c1 ?
-0.2

How about CC(CN(C)Cc1ccccc1)OC(=O)c1ccc2c(c1)OCCO2 (stereo not given) ?
0

How about COC(=O)CSC1=NS(=O)(=O)c2ccccc21 ?
1.2

How about CCOC(=O)c1[nH]c(C)c(C(=O)Nc2ccc(Cl)cc2)c1C ?
-1.6

How about c1ccc(CN2C3=NCCCN3c3ccccc32)cc1 ?
-4.7

How about COc1ccccc1CN1CC(C(=O)NCc2cccnc2)CC1=O (stereo not given) ?
-8

How about Cn1cccc1Cc1nnc(SCC(=O)NCC2CCCO2)n1-c1ccc(F)cc1 (stereo not given) ?
-4

How about C(=C\c1ccccc1)/CSc1nnc(-c2ccccn2)n1Cc1ccco1 ?
1.1

How about Cc1cc(C)cc(NC(=O)CCNS(=O)(=O)c2ccc3c(c2)oc(=O)n3C)c1 ?
-14.1

How about CC1CCc2nn(CC(=O)N3CCN(C(=O)c4ccco4)CC3)cc2C1 (stereo not given) ?
-8.5

How about COC(=O)C(C)Sc1nnc2n(-c3cccc(C)c3)c(=O)c3c4c(sc3n12)CCCC4 (stereo not given) ?
9.4

How about CC(C)C1N=C2c3ccccc3N=C(SCc3cc(=O)n4ccccc4n3)N2C1=O (stereo not given) ?
-10.9

How about COc1cc(CN2CCC(C(=O)NC3CCCC3)CC2)ccc1O ?
-5.5

How about O=c1c(CN2CCN(Cc3ccccc3)CC2)coc2ccc(Cl)cc12 ?
-1.6

How about COc1cc(SC)ccc1C(=O)Nc1ccon1 ?
-10.3

How about COCCn1c(CN2CCN(c3cccc(Cl)c3)CC2)nc2c1c(=O)n(C)c(=O)n2C ?
-6.3

How about Cc1cccc2sc(NC(=O)Cn3cccc3)nc12 ?
-1.1

How about CCCC(=O)OCCn1c(Br)nc2c1c(=O)[nH]c(=O)n2C ?
-9.1

How about O=C(CN1C(=O)CSC1=O)N1CCc2ccccc2C1 ?
4.8

How about COC(=O)c1ccsc1NC(=O)CN1C(=O)CCC1=O ?
-5.9

How about CCn1cc(C(=O)NCC2CCCO2)c(=O)c2cc(S(=O)(=O)N(C)C3CCCCC3)ccc21 (stereo not given) ?
3.7

How about Cc1ccc2c(c1)C(O)(CC(=O)c1ccc3c(c1)OCO3)C(=O)N2 (stereo not given) ?
9.5

How about O=C(NC1CCCC1)C1CCCN(S(=O)(=O)c2cccc3cccnc23)C1 (stereo not given) ?
6.6

How about CCOc1ccc(S(=O)(=O)N2CCN(C(=O)c3cccn3C)CC2)cc1 ?
2

How about COc1ccc(NC(=O)C2CCCN(S(=O)(=O)c3cccc4cccnc34)C2)cc1OC (stereo not given) ?
-2.6

How about Cc1nc2c(-c3ccc(F)cc3)c(C)nn2c(C)c1CCC(=O)NC(C)CCc1ccco1 (stereo not given) ?
0.6

How about Cc1cc(C(=O)NCCCN2CCN(C3CCCCC3)CC2)n(-c2ccccc2)n1 ?
-2.2

How about C=CCn1c(-c2cccs2)nc2nc3ccccc3nc21 ?
-5.4

How about CCn1c(SCC(=O)Nc2ccc(Cl)cc2)nnc1C1CC1 ?
1.7

How about CC(=O)C1=C(C)NC(SCSc2ccccc2)=C(C#N)C1c1cccnc1 (stereo not given) ?
-0.5

How about Cc1ccc(C)c(N2CCN(C(=O)CCCn3c(=S)[nH]c4cc5c(cc4c3=O)OCO5)CC2)c1 ?
2.5

How about c1ccc2c(c1)nc(NC1CCCCC1)c1nncn12 ?
-0.5

How about CC(C)Cn1c(CN(Cc2ccccc2)Cc2ccccc2)nc2c1c(=O)n(C)c(=O)n2C ?
-1

How about O=S(=O)(NCC1CCCO1)c1cc(Cl)ccc1Br (stereo not given) ?
-0.2

How about Cc1cc(O)c(-c2cc(C(=O)Nc3ccc(S(=O)(=O)N4CCOCC4)cc3)[nH]n2)cc1C ?
5.8

How about COc1cccc(NC(=O)c2nc3nc(C)cc(C(F)F)n3n2)c1 ?
-2.9

How about C/C(N)=C(/C#N)C(=O)COC(=O)c1cc(C)n(-c2ccc(F)cc2)c1C ?
10.2
